tested_target: full-length beta-Catenin (Uniprot ID P35222) (Homo sapiens, UniProt P35222)
Construct: 10 nM full-length beta-Catenin (Uniprot ID P35222)
Sequence (P35222 whole entry): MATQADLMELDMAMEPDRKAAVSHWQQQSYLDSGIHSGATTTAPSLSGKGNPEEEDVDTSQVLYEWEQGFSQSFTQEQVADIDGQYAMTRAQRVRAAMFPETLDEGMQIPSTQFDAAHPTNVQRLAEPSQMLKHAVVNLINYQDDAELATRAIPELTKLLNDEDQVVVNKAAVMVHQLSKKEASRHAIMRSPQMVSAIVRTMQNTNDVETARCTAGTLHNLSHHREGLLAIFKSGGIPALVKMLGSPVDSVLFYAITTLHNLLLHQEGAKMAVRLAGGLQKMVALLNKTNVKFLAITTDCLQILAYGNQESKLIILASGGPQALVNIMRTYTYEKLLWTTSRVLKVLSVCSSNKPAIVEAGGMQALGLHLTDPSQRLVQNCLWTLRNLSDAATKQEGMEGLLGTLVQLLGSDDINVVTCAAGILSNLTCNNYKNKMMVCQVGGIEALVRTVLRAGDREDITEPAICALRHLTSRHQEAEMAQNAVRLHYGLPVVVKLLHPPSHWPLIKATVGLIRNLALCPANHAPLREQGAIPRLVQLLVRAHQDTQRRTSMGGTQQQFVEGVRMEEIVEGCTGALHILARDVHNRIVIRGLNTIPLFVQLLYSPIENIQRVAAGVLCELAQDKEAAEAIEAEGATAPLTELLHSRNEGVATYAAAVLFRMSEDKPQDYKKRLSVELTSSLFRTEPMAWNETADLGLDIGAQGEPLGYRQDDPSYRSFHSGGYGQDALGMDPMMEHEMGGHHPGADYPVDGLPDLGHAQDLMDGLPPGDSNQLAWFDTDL
procedure_summary: Fluorescence polarization IC50 (beta-catenin / 5FAM-TCF4 10-53 competition)
Assay type: binding
applied_conditions: fluorescence polarization; read-out: beta-Catenin FP IC50
attribute_measured: pIC50
Formally, pIC50 is defined as -log10 of the concentration c, with c in mol/L.

Worked cases, pIC50 given:
compound: CC[C@H](C)[C@@H]1NC(=O)[C@H](CC(=O)O)NC(=O)[C@]2(CC=CCCCC3(CCCC=CCCCCCC[C@@](C)(C(=O)N[C@@H](Cc4ccccc4)C(=O)N[C@@H](Cc4csc5ccccc45)C(=O)N[C@@H](CCC(N)=O)C(N)=O)NC(=O)[C@H](CCC(N)=O)NC(=O)[C@H](CC4CCCCC4)NC(=O)[C@H](C)NC(=O)[C@H](C)NC(=O)[C@H](CCC(=O)O)NC(=O)[C@H](CC(=O)O)NC3=O)NC1=O)CCCN2C(C)=O (stereo partly drawn)
tested_target: full-length beta-Catenin (Uniprot ID P35222) (Homo sapiens, UniProt P35222)
attribute_measured: pIC50
endpoint_result: 5.95
//
compound: CC(=O)N1CCC[C@]12CC=CCCCC1(CCCC=CCCCCC[C@@](C)(C(=O)N[C@@H](Cc3ccsc3)C(=O)N[C@@H](Cc3csc4ccccc34)C(=O)N[C@@H](CCC(N)=O)C(N)=O)NC(=O)[C@H](CC(N)=O)NC(=O)[C@H](Cc3ccccc3)NC(=O)[C@H](C)NC(=O)[C@H](C)NC(=O)[C@H]([C@@H](C)O)NC(=O)[C@H](CC(N)=O)NC1=O)NC(=O)[C@H](CC(C)(C)C)NC(=O)[C@H](CC(=O)O)NC2=O (stereo partly drawn)
tested_target: full-length beta-Catenin (Uniprot ID P35222) (Homo sapiens, UniProt P35222)
attribute_measured: pIC50
endpoint_result: 5.08

Next, consider the following compound.
// sample CC(=O)N1CCC[C@]12CC=CCCCC1(CCCC=CCCCOC(=O)N3CC[C@@](C(=O)N[C@@H](Cc4ccccc4C(F)(F)F)C(=O)N[C@@H](Cc4csc5ccccc45)C(=O)N[C@@H](CO)C(N)=O)(C3)NC(=O)[C@H](CC(C)C)NC(=O)[C@H](Cc3ccccc3)NC(=O)[C@H](C)NC(=O)[C@H](C)NC(=O)[C@H](Cc3ccccc3C(=O)O)NC(=O)[C@H](CC(=O)O)NC1=O)NC(=O)[C@H](CC(C)(C)C)NC(=O)[C@H](CC(=O)O)NC2=O (single isomer, unassigned) [I-1661] , its pIC50 was 7.15
